assay_text: Human liver microsome assay
Format: in vitro ADME
conditions: 1 uM substrate, 0.5 mg/mL liver microsome, 2 mM NADPH, 37° C., referenced against time zero control
measure: HLM: percent unchanged after 30 min (%)

>>> df
                                    compound  units_text  experimental_value
 0  COc1ccc(Oc2ccc(C(F)(F)F)cc2C(=O)Nc2cccc(S(N)(=O)=O)c2)cc1F [Compound 28]           %                  92
 1  Cc1cc(F)ccc1Oc1cc(Cl)c(Cl)cc1C(=O)Nc1cccc(S(N)(=O)=O)c1 [Compound 83]           %                  93
 2  COc1cc(Cl)ccc1Oc1cc(Cl)cc(Cl)c1C(=O)Nc1cccc(S(N)(=O)=O)c1 [Compound 98]           %                  62
 3  COc1ccccc1Oc1cc(C(F)(F)F)ccc1C(=O)Nc1cccc(S(N)(=O)=O)c1 [Compound 44]           %                  79
 4  COc1ccc(Oc2ccc(C(F)(F)F)cc2C(=O)Nc2cccc(S(N)(=O)=O)c2)c(Cl)c1 [Compound 31]           %                  82
 5  COc1cc(Cl)ccc1Oc1cc(OC(F)(F)F)ccc1C(=O)Nc1cccc(S(N)(=O)=O)c1 [Compound 65]           %                 101
 6  COc1ccc(Oc2cc(Cl)c(Cl)cc2C(=O)Nc2cccc(S(N)(=O)=O)c2)c(OC)c1 [Compound 76]           %                  58
 7  Cc1cc(F)ccc1Oc1ccc(F)cc1C(=O)Nc1cccc(S(N)(=O)=O)c1 [Compound 21]           %                  96
 8  COc1cc(F)ccc1Oc1cc(Cl)c(Cl)cc1C(=O)Nc1cccc(S(N)(=O)=O)c1 [Compound 77]           %                  95
 9  COc1ccc(Oc2cc(Cl)ccc2C(=O)Nc2cccc(S(N)(=O)=O)c2)c(OC)c1 [Compound 84]           %                  82
10  NS(=O)(=O)c1cccc(NC(=O)c2cc(C(F)(F)F)ccc2Oc2ccc(F)cc2Cl)c1 [Compound 26]           %                 119
11  COc1ccc(Oc2cc(C(F)(F)F)ccc2C(=O)Nc2cccc(S(N)(=O)=O)c2)c(C)c1 [Compound 49]           %                  57
12  Cc1cc(F)ccc1Oc1ccc(C(F)(F)F)cc1C(=O)Nc1cccc(S(N)(=O)=O)c1 [Compound 25]           %                  94
13  COc1cc(F)ccc1Oc1cc(OC(F)(F)F)ccc1C(=O)Nc1cccc(S(N)(=O)=O)c1 [Compound 54]           %                  96
14  N#Cc1ccc(Oc2ccc(F)cc2Cl)c(C(=O)Nc2cccc(S(N)(=O)=O)c2)c1 [Compound 11]           %                  89
15  COc1cc(F)ccc1Oc1cc(C(F)(F)F)ccc1C(=O)Nc1cccc(S(N)(=O)=O)c1 [Compound 14]           %                  83
16  COc1ccccc1Oc1ccc(C(F)(F)F)cc1C(=O)Nc1cccc(S(N)(=O)=O)c1 [Compound 34]           %                  96
17  Cc1cc(Cl)ccc1Oc1ccc(C(F)(F)F)cc1C(=O)Nc1cccc(S(N)(=O)=O)c1 [Compound 30]           %                 103
18  COc1ccc(Oc2cccc(C(F)(F)F)c2C(=O)Nc2cccc(S(N)(=O)=O)c2)cc1F [Compound 61]           %                  68
19  COc1ccc(Oc2cc(C(F)(F)F)cc(C(F)(F)F)c2C(=O)Nc2cccc(S(N)(=O)=O)c2)cc1F [Compound 90]           %                  92
20  NS(=O)(=O)c1cccc(NC(=O)c2ccc(C(F)(F)F)cc2Oc2ccc(F)cc2F)c1 [Compound 2]           %                  97
21  NS(=O)(=O)c1cccc(NC(=O)c2c(Oc3ccc(OC(F)(F)F)cc3)cccc2C(F)(F)F)c1 [Compound 60]           %                  92
22  Cc1cc(F)ccc1Oc1ccc(Cl)cc1C(=O)Nc1cccc(S(N)(=O)=O)c1 [Compound 20]           %                  96
23  COc1cc(F)ccc1Oc1cc(C(F)(F)F)cc(C(F)(F)F)c1C(=O)Nc1cccc(S(N)(=O)=O)c1 [Compound 89]           %                  87
24  COc1ccc(Oc2ccc(C(F)(F)F)cc2C(=O)Nc2cccc(S(N)(=O)=O)c2)cc1 [Compound 22]           %                  88
25  COc1ccc(F)cc1Oc1cc(C(F)(F)F)cc(C(F)(F)F)c1C(=O)Nc1cccc(S(N)(=O)=O)c1 [Compound 92]           %                 113
26  NS(=O)(=O)c1cccc(NC(=O)c2ccc(OC(F)(F)F)cc2Oc2ccc(F)cc2)c1 [Compound 55]           %                  95
27  N#Cc1ccc(C(=O)Nc2cccc(S(N)(=O)=O)c2)c(Oc2ccc(F)cc2Cl)c1 [Compound 4]           %                 118
28  COc1ccc(Oc2cc(C(F)(F)F)ccc2C(=O)Nc2cccc(S(N)(=O)=O)c2)c(Cl)c1 [Compound 48]           %                  68
29  COc1cc(Cl)ccc1Oc1ccc(C(F)(F)F)cc1C(=O)Nc1cccc(S(N)(=O)=O)c1 [Compound 35]           %                  82
30  Cc1cc(F)ccc1Oc1cccc(C(F)(F)F)c1C(=O)Nc1cccc(S(N)(=O)=O)c1 [Compound 12]           %                  94

----------
The reader will find reported HLM: percent unchanged after 30 min values listed item by item below.
assay_text: Human liver microsome assay
Format: in vitro ADME
conditions: 1 uM substrate, 0.5 mg/mL liver microsome, 2 mM NADPH, 37° C., referenced against time zero control
measure: HLM: percent unchanged after 30 min (%)

>>> print(df.to_string())
                               given_smiles                              measure  experimental_value
0  Cc1ccccc1Oc1cc(C(F)(F)F)ccc1C(=O)Nc1cccc(S(N)(=O)=O)c1  HLM: percent unchanged after 30 min                 100
1  COc1c(Cl)cccc1Oc1cc(C(F)(F)F)ccc1C(=O)Nc1cccc(S(N)(=O)=O)c1  HLM: percent unchanged after 30 min                  80
2  NS(=O)(=O)c1cccc(NC(=O)c2c(Cl)cc(Cl)cc2Oc2ccc(OC(F)(F)F)cc2)c1  HLM: percent unchanged after 30 min                 102
3  NS(=O)(=O)c1cccc(NC(=O)c2cc(C(F)(F)F)ccc2Oc2ccc(F)cc2F)c1  HLM: percent unchanged after 30 min                 106
4  COc1ccc(Oc2cc(Cl)c(Cl)cc2C(=O)Nc2cccc(S(N)(=O)=O)c2)cc1F  HLM: percent unchanged after 30 min                  91
5  COc1cc(F)ccc1Oc1cc(C#N)ccc1C(=O)Nc1cccc(S(N)(=O)=O)c1  HLM: percent unchanged after 30 min                  86
6  NS(=O)(=O)c1cccc(NC(=O)c2cc(Cl)ccc2Oc2ccc(F)cc2Cl)c1  HLM: percent unchanged after 30 min                 102
7  Cc1cc(F)ccc1Oc1cc(C(F)(F)F)cc(C(F)(F)F)c1C(=O)Nc1cccc(S(N)(=O)=O)c1  HLM: percent unchanged after 30 min                  96

----------
assay_system: human Nav1.8 (Homo sapiens (Human), UniProt Q9Y5Y9)
Sequence (Q9Y5Y9 whole entry): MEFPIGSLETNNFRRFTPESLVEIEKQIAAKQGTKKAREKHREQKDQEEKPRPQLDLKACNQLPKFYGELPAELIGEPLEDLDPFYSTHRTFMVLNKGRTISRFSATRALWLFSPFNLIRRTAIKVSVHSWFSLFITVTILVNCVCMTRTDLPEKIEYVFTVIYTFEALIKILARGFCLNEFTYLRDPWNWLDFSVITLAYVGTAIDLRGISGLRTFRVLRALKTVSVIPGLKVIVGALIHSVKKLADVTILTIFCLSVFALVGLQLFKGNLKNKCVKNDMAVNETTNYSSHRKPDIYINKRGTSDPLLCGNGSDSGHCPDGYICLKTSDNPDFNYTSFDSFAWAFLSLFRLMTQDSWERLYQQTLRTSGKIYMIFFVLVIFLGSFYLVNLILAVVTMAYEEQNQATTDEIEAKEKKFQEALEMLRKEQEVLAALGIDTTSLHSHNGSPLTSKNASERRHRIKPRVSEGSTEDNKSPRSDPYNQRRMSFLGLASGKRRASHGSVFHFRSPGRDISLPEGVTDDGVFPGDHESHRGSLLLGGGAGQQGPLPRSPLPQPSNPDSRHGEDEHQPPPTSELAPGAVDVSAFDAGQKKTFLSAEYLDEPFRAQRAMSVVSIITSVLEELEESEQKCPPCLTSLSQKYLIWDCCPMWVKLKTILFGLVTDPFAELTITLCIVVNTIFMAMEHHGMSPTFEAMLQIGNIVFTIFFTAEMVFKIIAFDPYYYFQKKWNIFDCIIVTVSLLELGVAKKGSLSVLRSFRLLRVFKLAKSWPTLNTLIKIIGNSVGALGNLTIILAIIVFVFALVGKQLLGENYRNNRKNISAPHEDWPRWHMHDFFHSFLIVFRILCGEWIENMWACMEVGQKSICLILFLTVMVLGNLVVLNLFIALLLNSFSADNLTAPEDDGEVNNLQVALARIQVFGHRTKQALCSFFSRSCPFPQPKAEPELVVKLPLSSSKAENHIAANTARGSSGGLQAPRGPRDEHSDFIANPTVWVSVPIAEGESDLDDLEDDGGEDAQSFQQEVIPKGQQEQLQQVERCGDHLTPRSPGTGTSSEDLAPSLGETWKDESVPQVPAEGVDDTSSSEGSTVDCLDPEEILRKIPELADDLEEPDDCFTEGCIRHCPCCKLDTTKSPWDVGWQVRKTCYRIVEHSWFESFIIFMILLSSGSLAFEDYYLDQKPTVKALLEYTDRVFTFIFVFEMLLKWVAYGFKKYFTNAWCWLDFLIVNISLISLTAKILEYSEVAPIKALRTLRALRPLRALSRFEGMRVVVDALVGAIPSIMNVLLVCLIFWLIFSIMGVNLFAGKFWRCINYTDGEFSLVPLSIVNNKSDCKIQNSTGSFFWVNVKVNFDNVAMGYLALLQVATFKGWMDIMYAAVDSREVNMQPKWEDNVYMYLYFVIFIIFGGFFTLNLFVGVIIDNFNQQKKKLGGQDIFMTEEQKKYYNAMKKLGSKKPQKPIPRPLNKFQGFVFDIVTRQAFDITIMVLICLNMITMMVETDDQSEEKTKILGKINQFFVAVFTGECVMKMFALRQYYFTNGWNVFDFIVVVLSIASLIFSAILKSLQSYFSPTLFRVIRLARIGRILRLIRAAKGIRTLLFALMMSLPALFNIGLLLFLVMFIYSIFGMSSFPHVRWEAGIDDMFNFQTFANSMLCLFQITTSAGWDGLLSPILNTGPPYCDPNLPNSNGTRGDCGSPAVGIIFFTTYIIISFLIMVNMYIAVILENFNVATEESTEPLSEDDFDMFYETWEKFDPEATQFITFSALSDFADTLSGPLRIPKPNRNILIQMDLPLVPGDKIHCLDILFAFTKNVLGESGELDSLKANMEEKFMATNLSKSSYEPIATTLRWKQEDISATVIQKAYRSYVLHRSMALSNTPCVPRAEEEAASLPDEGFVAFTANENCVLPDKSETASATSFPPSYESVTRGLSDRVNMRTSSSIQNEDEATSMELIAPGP
assay_text: E-VIPR optical membrane potential assay with electrical stimulation
conditions: HEK cells expressing human Nav1.8
pIC50: −log10 of the molar value.
measure: pIC50

>>> df
                                   molecule  measure  experimental_value
0  Cc1cc(F)ccc1Oc1ccc(C(F)(F)F)cc1C(=O)Nc1cccc(S(N)(=O)=O)c1 [Compound 25]    pIC50                8.40
1  COc1ccccc1Oc1cc(C(F)(F)F)ccc1C(=O)Nc1cccc(S(N)(=O)=O)c1 [Compound 44]    pIC50                7.70
2  NS(=O)(=O)c1cccc(NC(=O)c2cc(C(F)F)ccc2Oc2ccc(F)cc2Cl)c1 [Compound 40]    pIC50                8.15
3  Cc1cccc(Oc2ccc(F)cc2Cl)c1C(=O)Nc1cccc(S(N)(=O)=O)c1 [Compound 38]    pIC50                7.85
